The measurements presented in this section are drawn from patent US11827663B2.

Assignment: determine reported pIC50 for the given molecules.
Tested on: PANC-1 cells
Experiment: Cell count / cell proliferation assay in PANC-1 cells
Assay type: cell-based
Conditions: cells counted after 48 hours incubation, normalized to controls; read-out: Estimated IC50 values, PANC-1
Answers are plain numbers, as −log10 of the molar value.

{"columns": ["molecule", "pIC50"],
 "data": [
  ["CC(=O)OCC1OC(O)[C@@H](NC(=O)c2ccccc2)[C@@H](OC(C)=O)[C@@H]1OC(C)=O (some centres unmarked)", 4.12]
]}

Value of measured pIC50 for the entry CC(=O)OC[C@H]1OC(OC(C)=O)[C@H](NC(=O)c2ccccc2O)[C@@H](OC(C)=O)[C@@H]1OC(C)=O (some centres unmarked) : 4.30
